meta.source: the supplement of paper PMC10065799

Examples of sequences with documented phosphorylation enrichment follow.
- study target: FGFR1 (UniProt P11362)
- Sequence (P11362 whole entry, looked up): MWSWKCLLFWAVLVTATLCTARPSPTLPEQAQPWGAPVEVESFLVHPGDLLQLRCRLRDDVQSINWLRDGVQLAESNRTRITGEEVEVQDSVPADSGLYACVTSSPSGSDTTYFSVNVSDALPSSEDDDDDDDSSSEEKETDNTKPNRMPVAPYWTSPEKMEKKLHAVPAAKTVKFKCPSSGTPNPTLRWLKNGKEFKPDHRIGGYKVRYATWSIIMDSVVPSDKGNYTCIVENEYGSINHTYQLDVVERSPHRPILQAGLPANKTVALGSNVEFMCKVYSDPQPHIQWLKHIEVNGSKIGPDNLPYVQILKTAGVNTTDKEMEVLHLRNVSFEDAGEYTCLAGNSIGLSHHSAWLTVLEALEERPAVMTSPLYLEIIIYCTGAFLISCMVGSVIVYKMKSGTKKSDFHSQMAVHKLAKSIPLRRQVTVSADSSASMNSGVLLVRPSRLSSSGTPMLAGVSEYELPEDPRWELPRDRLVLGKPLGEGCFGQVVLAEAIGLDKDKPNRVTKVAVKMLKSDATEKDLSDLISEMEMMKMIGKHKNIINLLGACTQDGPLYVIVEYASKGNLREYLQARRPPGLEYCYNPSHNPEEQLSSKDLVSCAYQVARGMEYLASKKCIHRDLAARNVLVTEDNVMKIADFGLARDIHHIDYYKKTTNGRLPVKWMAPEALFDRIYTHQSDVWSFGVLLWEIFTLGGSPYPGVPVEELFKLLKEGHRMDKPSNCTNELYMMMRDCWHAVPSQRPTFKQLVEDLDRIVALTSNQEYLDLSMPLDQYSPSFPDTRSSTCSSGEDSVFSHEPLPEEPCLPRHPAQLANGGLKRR
- assay details: phosphorylation enrichment, bacterial display (enrichment ratio); higher = better substrate or ligand; peptides without Tyr show the background;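 further: 11-residue human phosphosite peptides and single-mutation variants displayed on the E. coli surface, counted by deep sequencing, each peptide's frequency after selection divided by its frequency in the unselected input library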;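 further: frequency after pTyr selection over input frequency; kinase dosed for 20-30% of maximal phosphorylation in three min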
measurement kind: phosphorylation enrichment

sequence chain	result
MAYDRYVAICS [OR8D4_Y123_C120Y]	0.603
YDCGMYSHLQG [LGR4_Y848]	1.04
MECLPYGSLRD [JAK2_Y934_Y931C]	0.522
RMETEYGPSVT [MXRA5_Y2717]	0.91
VNFGAYINFFK [GLB1_Y488_D491Y_YF]	0.663
GGKYSYLKVGH [GRM3_Y480]	0.404
TFLRTYTDAMQ [TSPAN7_Y124]	0.438
NIQKKYFRAIL [CHD7_Y1217_YF]	0.436
PGIRMYQVQYN [LRFN1_Y454]	0.67
TQFWRYFAGNL [SLC25A5_Y112_L111R]	0.494
QRRLIYRCQVG [NR2E3_Y81_R76Q]	0.579
PIPAAYNRFDQ [CDC73_Y290_YF]	0.456
THLAPYSDELR [APOA1_Y190]	0.46
IGMFSYVMLAS [GGCX_Y301]	0.598
SVTCTFSPALN [TP53_Y126_Y126F]	0.602
RHPEVYHHLGI [NVL_Y290_V295I]	1.14
PRDGEYFTLQI [TP53_Y327_L323R]	11.7
PMDTFYDSTRG [DYNC2H1_Y2231_YF]	0.714
RFVSRYIFNRE [HLA-DQB1_Y62_T60S_YF]	0.852
ASRKYYAMKIL [AKT3_Y174_G171R]	0.475
VCDSDYSASRW [LRP5_Y1552]	0.449
GSESDYIIMPN [SCARB1_Y133_V135I]	5.65
YGGLRCGYGVL [KRTAP20-2_Y13_Y13C]	0.826
HDHYGYRQSVT [CD55_Y245_R240H]	0.695
SHNELYFEAAE [VANGL1_Y344_E347A_YF]	1.13
ESDGAYIQRMQ [CCDC137_Y125_H127Q]	0.385
RGERPYGGGGG [FUS_Y526_R522G]	0.419
FIIFIYAMKKK [SLCO1B1_Y645_L643F_YF]	0.461
KAFDMYSGDVM [FAM3D_Y122]	0.593
